Origin of measurements: paper PMC2954514

- assay.target: steady-state microtubules (MAP-rich)
- procedure.details: Binding of [3H]S-methyl DM1 to steady-state microtubules
- Design: species or system bovine
- assay.context: read-out: KD, high affinity sites on microtubules; low drug concentrations (10 nmol/L – 100 nmol/L)
metric.name: Kd (nM)
Write the number in nM without appending the unit.

Asked: Short answer please: Kd, steady-state microtubules (MAP-rich), entry `COc1cc2cc(c1Cl)N(C)C(=O)C[C@H](OC(=O)[C@H](C)N(C)C(=O)CCSC)[C@]1(C)O[C@H]1[C@H](C)[C@@H]1C[C@@](O)(NC(=O)O1)[C@H](OC)/C=C/C=C(\C)C2`
Given back: 100
